tested on: SW-620 colon; test: NCI tumour cell line growth inhibition, 48 h
Measured quantity: TGI

Recorded results for 6 molecules are shown here.
Molecule	TGI
Cc1nn(-c2ccccc2)c2ncc3c(c12)C(=O)N(Cc1ccccc1)C3=O	> 100 µM
CCO/C=N/C1=C(C#N)C(c2ccc(OC)c(OC)c2)c2c(-c3ccccc3)nn(-c3ccccc3)c2O1 (configuration not stated)	29.2 µM
Oc1c(Br)cc(Br)c2cccnc12	72.8 µM
O=C(Nc1cccc(Cl)c1)c1cc2cc(N=Nc3ccc(Br)cc3)ccc2oc1=O	> 100 µM
O=C(C(Cl)=C(Nc1ccccc1)Nc1ccccc1)C(Cl)Cl	57 µM
CN(C)CCCn1c2c(c3ccc([N+](=O)[O-])cc3c1=O)C(=O)c1ccccc1-2	> 100 µM

Record O=C1C2=C(Nc3cc([N+](=O)[O-])ccc3N2)OC1c1c[nH]c2ccc(COc3ccccc3)cc12 (configuration not stated) : what is its TGI with SW-620 colon?
> 100 µM

Record `O=c1n(CCO)nc2n1CCCN2` : what is its TGI with SW-620 colon?
> 100 µM

Record `COc1ccc(/C=N/NC(=O)c2ccccc2Nc2ccccc2C(=O)N/N=C/c2ccc(OC)c(OC)c2)cc1OC` : what is its TGI with SW-620 colon?
> 100 µM

Record `CN1CCN(c2nc3c(c(=O)n(C)c(=O)n3C)n2C)CC1` : what is its TGI with SW-620 colon?
> 100 µM

Record O=C1c2ccccc2CC1C1(O)C(=O)Nc2c(Cl)cc(Cl)cc21 (configuration not stated) : what is its TGI with SW-620 colon?
> 100 µM

Record `CCc1cccc(C(C)C)c1C1C(=O)C(=O)N(c2nc3ccccc3s2)C(=O)C1=O` : what is its TGI with SW-620 colon?
> 100 µM

Record Cc1[nH]c(=O)nc2c1C(=O)N(C(C)C)C(NC(C)C)S2 (configuration not stated) : what is its TGI with SW-620 colon?
> 100 µM

Record `N#Cc1ccccc1C#C/C=C\C#Cc1cnccn1` : what is its TGI with SW-620 colon?
> 41.9 µM

Record CCN(CC)CCCC(C)NC(=S)N/N=C(\C)c1ccccn1 (configuration not stated) : what is its TGI with SW-620 colon?
> 100 µM

Record C=C(Cl)C(Cl)(CBr)CCC(Cl)C(C)C (configuration not stated) : what is its TGI with SW-620 colon?
11.8 µM

Record `COc1cc2c(cc1C)NC(=O)/C2=C/c1c(Cl)n(C)c2ccccc12` : what is its TGI with SW-620 colon?
> 100 µM

Record O=c1c2ccccc2nc(-c2ccccc2Cl)n1NC1OC(CO)C(O)C(O)C1O (configuration not stated) : what is its TGI with SW-620 colon?
> 100 µM

Record Nc1n[nH]c(=O)c2c1c(Br)cn2C1OC(CO)C(O)C1O (configuration not stated) : what is its TGI with SW-620 colon?
> 100 µM

Record `O=[N+]([O-])c1ccc(-c2ccc(C3=Nn4c(nnc4-c4ccc(Cl)cc4)SC3)o2)cc1` : what is its TGI with SW-620 colon?
> 100 µM

Record COc1ccc(/C=C2\CC(C)CC3C2=NN(C(C)=O)C3c2ccc(OC)c(OC)c2)cc1OC (configuration not stated) : what is its TGI with SW-620 colon?
67.1 µM

Record `COc1ccc(/C(C)=C(\c2ccc(Cl)cc2)c2ccc(OCCN3CCCCC3)cc2)cc1F` : what is its TGI with SW-620 colon?
5.35 µM
